- Tested on: Plasmodium falciparum
- measurement_protocol: Plasmodium falciparum sporozoite viability assay; further: in the data most compounds retested in dose-response had high values
- Assay type: functional, organism-based
The whole screen tested about 34,000 compounds, of which about 290 (0.85%) showed an effect of 50% or more. Only a selection was taken, and strong results are over-represented in it overall.

{"molecule": "O=C(c1cc(=O)c(OCc2ccccc2)co1)N1CCSCC1", "unit_symbol": "%", "Percent Effect": -8.629}
{"molecule": "CC(=O)NC1CCCN(C(=O)NCc2cccnc2N(C)C)C1 (stereo not given)", "unit_symbol": "%", "Percent Effect": -28.43}
{"molecule": "O=C(c1cccnc1)N1Cc2ccccc2OCC1Cn1ccnc1 (stereo not given)", "unit_symbol": "%", "Percent Effect": -1.384}
{"molecule": "c1cnc(-c2nc(CN3CCCC(N4CCCC4)C3)cs2)nc1 (stereo not given)", "unit_symbol": "%", "Percent Effect": 5.451}
{"molecule": "CN(C)CCNC(=O)c1cc(-c2cnc(N(C)C)nc2)cn1CC1CC1", "unit_symbol": "%", "Percent Effect": 2.417}
{"molecule": "CC(=O)NC1CCCN(C(=O)Nc2cnc3c(cnn3C(C)C)c2)C1 (stereo not given)", "unit_symbol": "%", "Percent Effect": -3.926}
{"molecule": "c1ccc2oc(CN3CCCC3c3noc(C4CC4)n3)nc2c1 (stereo not given)", "unit_symbol": "%", "Percent Effect": 8.668}
{"molecule": "Cc1nc(N(CCC(N)=O)Cc2ccccc2)c2nc(C)oc2n1", "unit_symbol": "%", "Percent Effect": 2.982}
{"molecule": "Cc1nc2cc(O)nn2c(C)c1CCC(=O)NCc1cc(Br)cs1", "unit_symbol": "%", "Percent Effect": 3.643}
{"molecule": "CN(C)CCNC(=O)[C@H]1C[C@@H]2CN(C(=O)NCc3ccccc3)C[C@H]1O2.O=C(O)C(F)(F)F", "unit_symbol": "%", "Percent Effect": -11.68}

FYI, the data here is from ChEMBL document CHEMBL3988442.
